test.system: T1, Bud14, P27637
T1 sequence (P27637 247-328, looked up): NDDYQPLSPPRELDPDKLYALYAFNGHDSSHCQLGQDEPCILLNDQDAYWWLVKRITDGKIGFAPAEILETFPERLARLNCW
test.name: SPOT array
details: median of control spots 956
parameter: SPOT intensity
Respond numerically, and do not add a unit to the figure.

Prompt: // query SPOT intensity value for entry "AVPPPPPPPPLPESL"
Response: 0

Prompt: Request: "HKVLRPFLLRRLKKD"
Response: 21

Prompt: Request: "VQQDSLPKLPFRSWG"
Response: 0

Prompt: Request: "RRTRLRPPTPLSQLL"
Response: 24
